Assay: soluble on expression in E. coli; label from the status in PepcDB or PDB records

macromolecule sequence	soluble on expression in E. coli
MSLKSLKAKFRKSDTNEWNKNDDRLLQAVENGDAEKVASLLGKKGASATKHDSEGKTAFHLAAAKGHVECLRVMITHGVDVTAQDTTGHSALHLAAKNSHHECIRRLLQSKCPAESVDSSGKTALHYAAAQGCLQAVQILCEHKSPINLKDLDGNIPLLLAVQNGHSEICHFLLDHGADVNSRNKSGRTALMLACEIGSSNAVEALIKKGADLNLVDSLGYNALHYSKLSENAGIQSLLMSKISQDADLKTEGHHHHHH	soluble
MYEGESVVQLAKRMIEHLLKWGVTDAFTDKQIYTILEKAESTLKPLPAMLQVEHPITIVGDIHGQLDALIRYFDAVGYPPKVQFLFLGDYVDRGAKSFEVSLLLFCYKIRYPHLNVFNELPLCARVGQRILCMHGGISQNCNSWESFKALKKPNTPLTCDEGLQVDLMWADPTQDKCNTFAMNKQRAISVVFGQKGLDDFLKKLGLSLIVRAHEVSQEGFNFLFNKKCVTVFSAPYYCGNDTNCGAIMHVSDSYELSFTVLRPRMIATPENFEIVKLMENNYKGLMVASPDPNRGRHLQSADVPQPTPPSVQLVPPVTKPVEIKKQ	not soluble
MSLEKEYEYLVPPDDYLAAGVHIGTQIKTGDMKKFIFKVRQDGLYVLDIRKLDERIRVAAKFLSRYEPSKILLVAARQYAHKPVQMFSKVVGSDYIVGRFIPGTLTNPMLSEYREPEVVFVNDPAIDKQAVSEATAVGIPVVALCDSNNSSADVDLVIPTNNKGRRALAIVYWLLAREIAKIRGQDFTYSIEDFEAELEGGSHHHHHH	soluble
MGSDKIHHHHHHMIHIKRAPDTETAYLVMKEGFSDYMIPLGLSPEVFQERILERDGNQLEHSFIAYHGERPVAIWLNGLKTIKKKTVMRCGGLAVDPQYRRLGIAKALYDAQLSYAKSLNVDCLMLEVIQGNEPAITLYKSFGYQTVSELGYFHKEESGQVEPLVEIDQVAFERRYIQQDEYIWQQDPGVMKLAKARYYELDGAFIAAVNESIFAILTDEEEVARVATEATRRLAGELYHLQSTNQQVWEELLKAGWQQRDLKQFIMQKPISV	not soluble
SDIEQKQAEIIDQLVKRASTCKSEALGPLIIEATSHPSLFAFSEILALPNVAQLEGTTDSVYLDLLRLFAHGTWGDYKCNATRLPHLSPDQILKLKQLTVLTLAESNKVLPYDTLMVELDVSNVRELEDFLINECMYAGIVRGKLDQLKRCFEVPFAAGRDLRPGQLGNMLHTLSNWLNTSENLLISIQDKIKWADNMSEMDKKHRKEAEEGVEEVKKSLSMKGDVDIRGNKEMFGEPSGVMDYEEDGIRPKRRRHPVTR	soluble
MQKYTIVDLNEKAEAELAAIAGELGIANAGSMPKQELIYKILDEQAISVAGVRKEKQKTTEDRHTERRKPGRPRKNAEEEAPESEDVAAAPAEPNDEEAQAKRKRGRPRKAAEEIAEETREDVQQLVALAAAEETNATEKESAGRKPAAKTSTASPAKAPAKALPRPAETTPRVAPSPPPTTPVSEPAKDDAKPETPAPPPAIESITTTPAAGAVDEGGARRLVFRHKNSSSVLDQVLPYSSPQPPQRPKPAGAPVGSSPIRQRQAAGVPTPRREPQQPLYNFDGILECM	not soluble
